- Measurement conditions: buffer; pH 7.4; 200.0 µM
Each entry below carries its reported solubility kinetic.

I'd like to know its solubility kinetic. The compound in question is CC(OC(=O)c1ccncc1)C(=O)NC1CCCC1 (centres undefined)
> 39.3 µg/mL

I'd like to know its solubility kinetic. The compound in question is N#Cc1c(NCCO)ccc([N+](=O)[O-])c1NCCO
> 39.9 µg/mL

I'd like to know its solubility kinetic. The compound in question is O=C(COC(=O)COc1ccc(Cl)cc1)NC1CC1
> 42.6 µg/mL

I'd like to know its solubility kinetic. The compound in question is CC(Oc1ccccc1)C(=O)N1CCN(c2ncccn2)CC1 (centres undefined)
> 46.9 µg/mL

Others:
I'd like to know its solubility kinetic. The compound in question is Br.O=C(O)c1ccccc1CSC1=NCCS1
> 50.1 µg/mL

I'd like to know its solubility kinetic. The compound in question is COc1ccc(CCn2cnc3c([nH]c4ccccc43)c2=O)cc1
< 0.2 µg/mL

I'd like to know its solubility kinetic. The compound in question is O=c1cc(C(F)(F)F)[nH]c2ccc(C(F)(F)F)cc12
> 42.2 µg/mL

I'd like to know its solubility kinetic. The compound in question is COc1cccc(CC(=O)Nc2ccc(S(=O)(=O)Nc3nccs3)cc2)c1
> 60.5 µg/mL

I'd like to know its solubility kinetic. The compound in question is CCCCNC(=O)c1ccc(CS(=O)(=O)c2ccc(C)cc2)o1
> 50.3 µg/mL

Source: PubChem BioAssay AID1996
